Test: Two-period crossover pharmacokinetics of nalmefene 3 mg IN vs 1.0 mg IM (Example 12)
Conditions: human, plasma, other: intranasal, 3 mg, Mean plasma concentration, Treatment A 3.0 mg IN; […]
PROPERTY MEASURED: concentration at 18 h

{"ENTRY SMILES": "C=C1CC[C@@]2(O)[C@H]3Cc4ccc(O)c5c4[C@@]2(CCN3CC2CC2)[C@H]1O5", "MEASURED RESULT": "0.529 ng/mL"}

###

Assay: Two-period crossover pharmacokinetics of nalmefene 3 mg IN vs 1.0 mg IM (Example 12)
Details: human, plasma, other: intranasal, 3 mg, Median plasma concentration, Treatment A 3.0 mg IN; […]

{"ENTRY SMILES": "C=C1CC[C@@]2(O)[C@H]3Cc4ccc(O)c5c4[C@@]2(CCN3CC2CC2)[C@H]1O5", "UNIT NAME": "ng/mL", "concentration at 24 h": 0.341}

###

Experiment: Two-period crossover pharmacokinetics of nalmefene 3 mg IN vs 1.0 mg IM (Example 12)
Settings: human, plasma, im, 1 mg, Cmax, Treatment B: IM 1.0 mg nalmefene hydrochloride; plasma; Mean, n=68
PROPERTY MEASURED: Cmax (ng/mL)

{"ENTRY SMILES": "C=C1CC[C@@]2(O)[C@H]3Cc4ccc(O)c5c4[C@@]2(CCN3CC2CC2)[C@H]1O5", "PROPERTY MEASURED": "Cmax", "MEASURED RESULT": 1.77}

###

Experiment: Two-period crossover pharmacokinetics of nalmefene 3 mg IN vs 1.0 mg IM (Example 12)
Conditions: human, plasma, other: intranasal, 3 mg, AUCLast, GeoMean, Treatment A 3.0 mg IN (Test)
PROPERTY MEASURED: AUC(0-t) (ng·h/mL)

{"COMPOUND": "C=C1CC[C@@]2(O)[C@H]3Cc4ccc(O)c5c4[C@@]2(CCN3CC2CC2)[C@H]1O5 [Nalmefene]", "PROPERTY MEASURED": "AUC(0-t)", "UNIT NAME": "ng·h/mL", "MEASURED RESULT": 38.9}

###

Experiment: Two-period crossover pharmacokinetics of nalmefene 3 mg IN vs 1.0 mg IM (Example 12)
Settings: human, plasma, im, 1 mg, AUC0-20 min, Treatment B: 1.0 mg nalmefene IM (gluteal muscle); plasma; Mean, n 68

{"ENTRY SMILES": "C=C1CC[C@@]2(O)[C@H]3Cc4ccc(O)c5c4[C@@]2(CCN3CC2CC2)[C@H]1O5", "UNIT NAME": "ng·h/mL", "AUC(0-t)": 0.299}

###

Experiment: Two-period crossover pharmacokinetics of nalmefene 3 mg IN vs 1.0 mg IM (Example 12)
Conditions: human, plasma, im, 1 mg, AUC0-30 min, Treatment B: 1.0 mg nalmefene IM (gluteal muscle); plasma; Median, n 68

{"ENTRY SMILES": "C=C1CC[C@@]2(O)[C@H]3Cc4ccc(O)c5c4[C@@]2(CCN3CC2CC2)[C@H]1O5", "AUC(0-t) / ng·h/mL": 0.389}

###

Test: Three-treatment crossover pharmacokinetics of IN nalmefene, three dosing regimens (Example 13)
Conditions: human, plasma, other: intranasal (IN spray), 6 mg, […], Median; Time 12.0; T3: 6 mg nalmefene HCl IN, two 0.1 mL sprays in one nostril

{"COMPOUND": "C=C1CC[C@@]2(O)[C@H]3Cc4ccc(O)c5c4[C@@]2(CCN3CC2CC2)[C@H]1O5 [Nalmefene]", "concentration at 12 h": "1.82 ng/mL"}

###

Assay: Two-period crossover pharmacokinetics of nalmefene 3 mg IN vs 1.0 mg IM (Example 12)
Conditions: human, plasma, other: intranasal, 3 mg, Mean plasma concentration, Treatment A 3.0 mg IN; 8.00 h

{"ENTRY SMILES": "C=C1CC[C@@]2(O)[C@H]3Cc4ccc(O)c5c4[C@@]2(CCN3CC2CC2)[C@H]1O5", "concentration at 8 h / ng/mL": 1.23}

###

Assay: Phase 1 pharmacokinetic evaluation of nalmefene IN with and without Intravail vs IM injection
Conditions: human, in vivo, 1.5 mg

{"ENTRY SMILES": "C=C1CC[C@@]2(O)[C@H]3Cc4ccc(O)c5c4[C@@]2(CCN3CC2CC2)[C@H]1O5", "concentration at 0.08 h [ng/mL]": 0}

###

Experiment: Two-period crossover pharmacokinetics of nalmefene 3 mg IN vs 1.0 mg IM (Example 12)
Details: human, plasma, other: intranasal, 3 mg, AUC0-15 min, GeoMean, Treatment A 3.0 mg IN (Test)

{"ENTRY SMILES": "C=C1CC[C@@]2(O)[C@H]3Cc4ccc(O)c5c4[C@@]2(CCN3CC2CC2)[C@H]1O5", "AUC(0-t) / ng·h/mL": 1.19}

###

Experiment: Phase 1 pharmacokinetic evaluation of nalmefene IN with and without Intravail vs IM injection
Settings: human, in vivo, 1.5 mg

{"ENTRY SMILES": "C=C1CC[C@@]2(O)[C@H]3Cc4ccc(O)c5c4[C@@]2(CCN3CC2CC2)[C@H]1O5", "concentration at 0.04 h (µg/mL)": 0}

###

Assay: Two-period crossover pharmacokinetics of nalmefene 3 mg IN vs 1.0 mg IM (Example 12)
Settings: human, plasma, intramuscular, 1 mg, Median plasma concentration, Treatment B 1.0 mg IM; […]

{"ENTRY SMILES": "C=C1CC[C@@]2(O)[C@H]3Cc4ccc(O)c5c4[C@@]2(CCN3CC2CC2)[C@H]1O5", "concentration at 48 h (ng/mL)": 0.0436}

###

Assay: Two-period crossover pharmacokinetics of nalmefene 3 mg IN vs 1.0 mg IM (Example 12)
Details: human, plasma, other: intranasal, 3 mg, Mean plasma concentration, Treatment A 3.0 mg IN; 3.00 h
PROPERTY MEASURED: concentration at 3 h (ng/mL)

{"ENTRY SMILES": "C=C1CC[C@@]2(O)[C@H]3Cc4ccc(O)c5c4[C@@]2(CCN3CC2CC2)[C@H]1O5", "UNIT NAME": "ng/mL", "MEASURED RESULT": 3.17}

###

Test: Three-treatment crossover pharmacokinetics of IN nalmefene, three dosing regimens (Example 13)
Settings: human, plasma, other: intranasal, 3 mg, […], Mean, T1 (3 mg IN, one spray in one nostril); time 0.333
PROPERTY MEASURED: concentration at […] (ng/mL)

{"ENTRY SMILES": "C=C1CC[C@@]2(O)[C@H]3Cc4ccc(O)c5c4[C@@]2(CCN3CC2CC2)[C@H]1O5", "PROPERTY MEASURED": "concentration at […]", "UNIT NAME": "ng/mL", "MEASURED RESULT": 8.79}

###

Assay: Phase 1 pharmacokinetic evaluation of nalmefene IN with and without Intravail vs IM injection
Details: human, in vivo, 3 mg

{"MOLECULE": "C=C1CC[C@@]2(O)[C@H]3Cc4ccc(O)c5c4[C@@]2(CCN3CC2CC2)[C@H]1O5 [Nalmefene]", "concentration at 60 h [ng/mL]": 0}

###

Test: Two-period crossover pharmacokinetics of nalmefene 3 mg IN vs 1.0 mg IM (Example 12)
Settings: human, plasma, other: intranasal, 3 mg, AUC0-[…], Treatment A: 3.0 mg nalmefene hydrochloride IN; plasma; Mean, n 66

{"ENTRY SMILES": "C=C1CC[C@@]2(O)[C@H]3Cc4ccc(O)c5c4[C@@]2(CCN3CC2CC2)[C@H]1O5", "AUC(0-t)": "0.0193 ng·h/mL"}

###

Experiment: Three-treatment crossover pharmacokinetics of IN nalmefene, three dosing regimens (Example 13)
Conditions: human, plasma, other: intranasal (IN spray), 3 mg, […], Min, T1 (3 mg IN, one spray in one nostril); time 24.0
PROPERTY MEASURED: concentration at 24 h (ng/mL)

{"COMPOUND": "C=C1CC[C@@]2(O)[C@H]3Cc4ccc(O)c5c4[C@@]2(CCN3CC2CC2)[C@H]1O5 [Nalmefene]", "UNIT NAME": "ng/mL", "MEASURED RESULT": 0.261}

###

Experiment: Three-treatment crossover pharmacokinetics of IN nalmefene, three dosing regimens (Example 13)
Details: human, plasma, other: intranasal (IN spray), 6 mg, […], Mean; Time 1.00; T3: 6 mg nalmefene HCl IN, two 0.1 mL sprays in one nostril

{"COMPOUND": "C=C1CC[C@@]2(O)[C@H]3Cc4ccc(O)c5c4[C@@]2(CCN3CC2CC2)[C@H]1O5 [Nalmefene]", "concentration at 1 h, ng/mL": 9.59}

###

Test: Phase 1 pharmacokinetic evaluation of nalmefene IN with and without Intravail vs IM injection
Conditions: human, in vivo, 1.5 mg

{"COMPOUND": "C=C1CC[C@@]2(O)[C@H]3Cc4ccc(O)c5c4[C@@]2(CCN3CC2CC2)[C@H]1O5 [Nalmefene]", "UNIT NAME": "ng/mL", "concentration at 36 h": 0}
